Target: A₂ receptor (Rattus norvegicus)
Construct: from tissue; host or cells: rat corpus striatum membrane preparation
Assay: Adenosine A₂ receptor binding test (³H-NECA binding)
Details: read-out: Inhibition (%) A₂ Receptor
Measured inhibition at 10 µM accompanies every entry in the list below.
Kindly provide the numeric value in % only, without the unit symbol.

Q: Please look at this compound and report its inhibition at 10 µM: `CCn1c(=O)c2[nH]c(/C=C/c3ccc4c(c3)OCO4)nc2n(CC)c1=O`
Ans: 70

====

Measured MLD accompanies every entry in the list below.
Tested on: dd-strain male mice
Experiment: Acute toxicity test (minimum lethal dose, oral)
Format: in vivo
Settings: oral administration, three mice per group, mortality seven days after administration

Answered cases to consult:
Q: Please look at this compound and report its MLD: COc1ccc(/C=C/c2nc3c([nH]2)c(=O)n(C)c(=O)n3C)c(OC)c1 [Compound 27, (E)-8-(2,4-Dimethoxystyryl)theophylline]
Ans: > 100 mg/kg

Q: Please look at this compound and report its MLD: CCn1c(=O)c2c(nc(/C=C/c3ccc(O)c(C)c3C)n2C)n(CC)c1=O [Compound 122]
Ans: > 100 mg/kg

Q: Please look at this compound and report its MLD: CCn1c(=O)c2[nH]c(/C=C/c3ccc(OC)c(OC)c3)nc2n(CC)c1=O [Compound 1]
Ans: > 300 mg/kg

From here, focus on the item given below.
Q: Please look at this compound and report its MLD: CCn1c(=O)c2[nH]c(/C=C/c3ccc4c(c3)OCO4)nc2n(CC)c1=O [Compound 15]
Ans: > 300 mg/kg

====

Target: A₂ receptor (Rattus norvegicus, UniProt P30543)
Construct: from tissue; host or cells: rat corpus striatum membrane preparation
Sequence (P30543 whole entry): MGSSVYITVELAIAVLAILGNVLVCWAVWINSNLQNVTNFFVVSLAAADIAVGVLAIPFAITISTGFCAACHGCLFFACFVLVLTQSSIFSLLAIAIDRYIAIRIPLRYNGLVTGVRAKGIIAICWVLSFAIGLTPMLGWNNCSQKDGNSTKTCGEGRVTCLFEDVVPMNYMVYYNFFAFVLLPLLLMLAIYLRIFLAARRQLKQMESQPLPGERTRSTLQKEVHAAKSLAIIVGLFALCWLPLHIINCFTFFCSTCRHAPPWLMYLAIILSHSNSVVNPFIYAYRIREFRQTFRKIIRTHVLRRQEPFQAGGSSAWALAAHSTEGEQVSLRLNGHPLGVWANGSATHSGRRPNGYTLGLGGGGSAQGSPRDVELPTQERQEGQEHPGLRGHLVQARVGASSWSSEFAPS
Assay: Adenosine A₂ receptor binding test (³H-NECA binding)
Settings: 10⁻⁴M; ³H-NECA binding, rat corpus striatum; read-out: Inhibition (%) A₂ Receptor
Measured inhibition at 100 µM accompanies every entry in the list below.
Kindly provide the numeric value in % only, without the unit symbol.

Q: Please look at this molecule and report its inhibition at 100 µM: CCn1c(=O)c2[nH]c(/C=C/c3cc(C)ccc3C)nc2n(CC)c1=O [Compound 33]
Ans: 92

====

Target: A₂ receptor (Rattus norvegicus, UniProt P30543)
Construct: from tissue; host or cells: rat corpus striatum membrane preparation
Experiment: Adenosine A₂ receptor binding test (³H-NECA binding)
Settings: 10⁻⁵M; ³H-NECA binding, rat corpus striatum; read-out: Inhibition (%) A₂ Receptor
Classes (inhibition at 10 µM): band 1 = under 80%, band 2 = from 80% up to 90%, band 3 = 90% and over

Worked examples follow.
Q: Would you mind sorting `CCn1c(=O)c2[nH]c(/C=C/c3ccc(OC)c(Br)c3)nc2n(CC)c1=O` into the appropriate category?
Ans: band 1

Q: Would you mind sorting `CCn1c(=O)c2c(nc(/C=C/c3ccc(F)c(F)c3)n2C)n(CC)c1=O` into the appropriate category?
Ans: band 3

Q: Would you mind sorting COc1cccc(/C=C/c2nc3c(=O)n(C)c(=O)n(C)c3[nH]2)c1OC [Compound 25, (E)-8-(2,3-Dimethoxystyryl)theophylline] into the appropriate category?
Ans: band 1

Q: Would you mind sorting COc1ccc(/C=C/c2nc3c(c(=O)n(C)c(=O)n3C)n2C)cc1Br [Compound 58, (E)-8-(3-Bromo-4-methoxystyryl)caffeine] into the appropriate category?
Ans: band 2

---
Q: Would you mind sorting COc1cccc(/C=C/c2nc3c(c(=O)n(C)c(=O)n3C)n2C)c1OC [Compound 26, (E)-8-(2,3-Dimethoxystyryl)caffeine] into the appropriate category?
Ans: band 1

Q: Would you mind sorting `CCn1c(=O)c2c(nc(/C=C/c3ccc(OC)c(Br)c3)n2C)n(CC)c1=O` into the appropriate category?
Ans: band 3

Q: Would you mind sorting `CCn1c(=O)c2[nH]c(/C=C/c3cc(C)ccc3C)nc2n(CC)c1=O` into the appropriate category?
Ans: band 3

Q: Would you mind sorting `CCn1c(=O)c2c(nc(/C=C/c3cc(OC)c(OC)cc3Br)n2C)n(CC)c1=O` into the appropriate category?
Ans: band 1

Q: Would you mind sorting COc1ccc(/C=C/c2nc3c(c(=O)n(C)c(=O)n3C)n2C)c(OC)c1 [Compound 28, (E)-8-(2,4-Dimethoxystyryl)caffeine] into the appropriate category?
Ans: band 2

Q: Would you mind sorting `CCn1c(=O)c2[nH]c(/C=C/c3ccc(OC)c(OC)c3Cl)nc2n(CC)c1=O` into the appropriate category?
Ans: band 3

Q: Would you mind sorting `CCn1c(=O)c2[nH]c(/C=C/c3cccc(OC)c3[N+](=O)[O-])nc2n(CC)c1=O` into the appropriate category?
Ans: band 1
